The listing below reports MIC for compounds tested on Escherichia coli ATCC 25922.
Write it as a number; the unit µM goes unstated.

Worked examples follow.
1. CC[C@H](C)[C@H](NC(=O)[C@H](CCCCN)NC(=O)[C@@H]1CCCN1C(=O)[C@H](CC(C)C)NC(=O)[C@@H](NC(=O)[C@H](CCCCN)NC(=O)CNC(=O)[C@H](CC(C)C)NC(=O)[C@@H](NC(=O)[C@H](CCCCN)NC(=O)CNC(=O)[C@H](CC(C)C)NC(=O)[C@H](CC(C)C)NC(=O)CNC(=O)[C@H](CC(C)C)NC(=O)[C@@H](N)Cc1ccccc1)C(C)C)C(C)C)C(=O)N[C@@H](Cc1ccccc1)C(=O)N[C@@H](CCCCN)C(N)=O	12.7
2. CC[C@H](C)[C@H](NC(=O)[C@H](CCCCN)NC(=O)[C@H](CCCN=C(N)N)NC(=O)[C@H](CC(C)C)NC(=O)[C@H](Cc1c[nH]c2ccccc12)NC(=O)[C@@H](N)Cc1c[nH]c2ccccc12)C(=O)N[C@@H](Cc1c[nH]c2ccccc12)C(=O)N[C@@H](Cc1c[nH]c2ccccc12)C(N)=O	25

Here is another compound to look at.
Tell me the measured MIC of `CC(C)C[C@H](NC(=O)[C@H](CC(C)C)NC(=O)[C@H](CCC(=O)O)NC(=O)[C@@H](N)CC(=O)O)C(=O)N[C@@H](CO)C(=O)N[C@@H](CCCN=C(N)N)C(=O)N[C@H](C(=O)O)C(C)C` , please. 38.5
